IC50, IL4 production, T-cell activation assay, donor 3 values by entry
Target: T1, full length human OX40L expressed on CHO cells (human, UniProt P23510 1-183)
T1 sequence: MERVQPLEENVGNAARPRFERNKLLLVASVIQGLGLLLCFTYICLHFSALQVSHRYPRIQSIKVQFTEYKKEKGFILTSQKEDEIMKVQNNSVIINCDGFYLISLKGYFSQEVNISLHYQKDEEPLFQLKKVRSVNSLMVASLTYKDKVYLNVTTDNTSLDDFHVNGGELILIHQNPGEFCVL
Assay: cell-based or functional assay
Number in nM, nothing else.

Worked examples follow.
- BINDER: "anti-OX40L benchmark Fab (Fab, V domains shown, papain digest of benchmark IgG; also called LC001 Fab) VH: EVQLLESGGGLVQPGGSLRLSCAASGFTFNSYAMSWVRQAPGKGLEWVSIISGSGGFTYYADSVKGRFTISRDNSRTTLYLQMNSLRAEDTAVYYCAKDRLVAPGTFDYWGQGALVTVSS VL: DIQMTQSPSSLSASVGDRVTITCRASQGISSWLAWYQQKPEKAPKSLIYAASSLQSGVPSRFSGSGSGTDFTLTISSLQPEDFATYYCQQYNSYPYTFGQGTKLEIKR"
  UNITS: "nM"
  NUMERIC_READOUT: 58
- BINDER: "OX40L19D08 (VHH, monovalent Nanobody from E. coli; not shown: C-terminal c-myc and His6 tag) VHH: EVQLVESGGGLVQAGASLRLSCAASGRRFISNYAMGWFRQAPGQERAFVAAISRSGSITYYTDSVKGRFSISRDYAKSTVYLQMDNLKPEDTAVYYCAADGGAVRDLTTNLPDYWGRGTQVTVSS"
  UNITS: "nM"
  NUMERIC_READOUT: 36
- BINDER: "OX40L01E10 (VHH, monovalent Nanobody from E. coli; not shown: C-terminal c-myc and His6 tag) VHH: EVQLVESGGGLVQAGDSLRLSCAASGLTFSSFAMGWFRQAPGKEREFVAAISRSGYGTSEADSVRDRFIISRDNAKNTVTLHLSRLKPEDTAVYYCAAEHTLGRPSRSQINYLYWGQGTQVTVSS"
  UNITS: "nM"
  NUMERIC_READOUT: 27

API: the following record is the query input.
Supply recorded IC50, IL4 production, T-cell activation assay, donor 3 for OX40L01B11 (VHH, monovalent Nanobody from E. coli; not shown: C-terminal c-myc and His6 tag) VHH: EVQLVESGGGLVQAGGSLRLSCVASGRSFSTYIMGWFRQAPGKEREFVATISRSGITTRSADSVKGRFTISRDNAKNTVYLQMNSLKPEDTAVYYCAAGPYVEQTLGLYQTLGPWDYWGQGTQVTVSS here.
80
